TARGET SYSTEM: human α-thrombin (Homo sapiens)
Construct: purified human α-thrombin dissolved in thrombin assay buffer
PROCEDURE TEXT: Enzyme assay for the inhibition of thrombin (s-2238 substrate)
Type: biochemical
CONDITION PARAMETERS: human α-thrombin, s-2238, pH 7.4, room temperature
Structures can show the parent of a compound that is named as a salt.
METRIC: Thrombin k2 /ki (second order rate constant for inactivation of the enzyme)

COMPOUND	RESULT
COC(=O)[C@H]1[C@H](CCCCNC(=N)N)C(=O)N1S(=O)(=O)c1cccc2c(N(C)C)cccc12 (relative stereo) [XVII, hydrochloride salt]	3.7 × 10^5 m^-1 min^-1
CC(=O)N1C(=O)[C@H](CCCNC(=N)N)[C@@H]1C(=O)N1CCCCC1 (relative stereo) [XXIII, hydrochloride salt]	4.3 × 10^4 m^-1 min^-1
COC(=O)[C@H]1[C@H](CCCNC(=N)N)C(=O)N1S(C)(=O)=O.Cl (relative stereo)	1.5 × 10^6 m^-1 min^-1
CCS[C@H]1[C@H](CCCNC(=N)N)C(=O)N1C(C)=O (relative stereo) [VII, hydrochloride salt]	5.6 × 10^6 m^-1 min^-1
COC(=O)[C@H]1[C@H](CCCNC(=N)N)C(=O)N1C(C)=O (relative stereo) [II, hydrochloride salt]	1.9 × 10^7 m^-1 min^-1
CC(=O)N1C(=O)[C@@H](CCCNC(=N)N)[C@@H]1S(=O)(=O)c1ccccc1 (relative stereo) [VI, hydrochloride salt]	3.0 × 10^6 m^-1 min^-1
COC(=O)[C@H]1[C@H](CCCNC(=N)N)C(=O)N1S(=O)(=O)c1ccc(C)cc1.Cl (relative stereo)	1.2 × 10^8 m^-1 min^-1
